Assay: P. aeruginosa biofilm formation inhibitors, primary screen, PAO1 strain, BacTiter-Glo luminescence, LB-PBS (AID 1144)
Conditions: 12 h, higher = more signal
TEST_READOUT: z-score

[[record]]
molecule = "COc1ccc(C#C[C@@H]2C=C[C@H](OC(C)=O)[C@@H](COC(C)=O)O2)cc1"
recorded_measurement = 0.132

[[record]]
molecule = "CCOC(=O)[C@H](CC(C)C)NC(=O)CCC1CC(OC(=O)NCCc2ccc(F)cc2)CC2(CCCC(COC(=O)NCCC(C)C)O2)O1 (some centres undefined)"
recorded_measurement = 0.288

[[record]]
molecule = "CC(CCN1CCCCc2nc(C)c(C)cc21)=NOC[C@@H](O)COCc1ccco1"
recorded_measurement = 0.676

[[record]]
molecule = "CO[C@H]1COC(=O)[C@@H](C)COC(=O)[C@@H](OCc2ccccc2)C=C[C@@H]1C"
recorded_measurement = 0.304


====

Entries and their measured composite z-score follow.
System: Inhibin beta A chain (activin A)
Assay: INHBA (activin A) binders on microarrays, primary screen, biochemical, small-molecule microarray, 635 nm fluorescence scan (AID 1107);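 also: mouse activin A protein probed at 4.33 µg/mL on printed slides; score merges bound-protein fluorescence near 667 nm with spot signal-to-noise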
Details: small-molecule microarray binding, higher = more signal
TEST_READOUT: composite z-score

[[record]]
compound = "COc1ccc(C#C[C@@H]2C=C[C@H](OC(C)=O)[C@@H](COC(C)=O)O2)cc1"
test_readout = "composite z-score"
recorded_measurement = 1.18

[[record]]
compound = "O=C1[C@H]2[C@H]3[C@H](O)[C@H](O)CC(=NOCc4ccccc4)[C@@H]3CC[C@H]2C(=O)N1Cc1ccc2c(c1)OCO2"
test_readout = "composite z-score"
recorded_measurement = 0.45

[[record]]
compound = "C#CCCCON=C1C[C@@H](O)[C@@H](O)[C@@H]2[C@@H]3C(=O)N(c4ccc(F)cc4F)C(=O)[C@@H]3CC[C@H]12"
test_readout = "composite z-score"
recorded_measurement = -0.185

[[record]]
compound = "CCOC(=O)CCN1C(=O)[C@H]2[C@H]3[C@H](O)[C@H](O)CC(=NNC(=O)OCc4ccccc4)[C@@H]3CC[C@H]2C1=O"
test_readout = "composite z-score"
recorded_measurement = -0.196

[[record]]
compound = "C#CCCCON=C1C[C@@H](O)[C@@H](O)[C@@H]2[C@@H]3C(=O)N(C(C)(C)C)C(=O)[C@@H]3CC[C@@H]12"
test_readout = "composite z-score"
recorded_measurement = 0.477

[[record]]
compound = "CCOC(=O)NN=C1C[C@@H](O)[C@@H](O)[C@@H]2[C@@H]3C(=O)N(c4cccc(Oc5ccccc5)c4)C(=O)[C@@H]3CC[C@H]12"
test_readout = "composite z-score"
recorded_measurement = 0.0233

[[record]]
compound = "CCOC(=O)[C@H](Cc1ccccc1)NC(=O)CCC1CC(OC(=O)NCCc2ccc(F)cc2)CC2(CCCC(COC(=O)NCCc3ccc(Cl)cc3)O2)O1 (some centres not stated)"
test_readout = "composite z-score"
recorded_measurement = 0.018


====

Entries and their measured z-score follow.
Assay: PSAC antagonists in infected red cells, primary screen, cell-based, P. falciparum Indochina, OD700, 2 h (AID 1155);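 also: lysis reports solute entry through the parasite surface anion channel PSAC; channel blockers reduce lysis of infected cells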
Settings: P. falciparum Indochina infected erythrocytes, osmotic lysis OD700; higher = more signal, called active from +8 up or from −8 down
TEST_READOUT: z-score

[[record]]
structure_smiles_string = "C=Cc1ccc([C@H]2N[C@H](C(=O)O)CC[C@@H]2C)cc1"
test_readout = "z-score"
recorded_measurement = -0.344

[[record]]
structure_smiles_string = "CCCNC(=O)OC[C@H]1O[C@H](CCON=C(C)CCN2CCc3nc(CC)c(CC)cc3C2)C=C[C@@H]1Oc1ccc(OC)cc1"
test_readout = "z-score"
recorded_measurement = 1.12

[[record]]
structure_smiles_string = "O=C1C=C[C@@H](O)[C@@H]2[C@@H]3C(=O)N(C[C@@H]4CCCO4)C(=O)[C@@H]3CC[C@@H]12"
test_readout = "z-score"
recorded_measurement = 0.979

[[record]]
structure_smiles_string = "C#CCCCON=C1C[C@@H](O)[C@@H](O)[C@@H]2[C@@H]3C(=O)N(C(C)(C)C)C(=O)[C@@H]3CC[C@@H]12"
test_readout = "z-score"
recorded_measurement = 1.28

[[record]]
structure_smiles_string = "COc1ccc(O[C@H]2C=C[C@@H](c3ccccc3)O[C@@H]2COC(=O)CCC(C)=NOC[C@@H](O)[C@H]2O[C@@H]3OC(C)(C)O[C@@H]3[C@H]2O)cc1"
test_readout = "z-score"
recorded_measurement = 1.12

[[record]]
structure_smiles_string = "C=CC[C@@H]1C=C[C@H](ON=C(C)CCC(=O)OC[C@H]2O[C@H](c3ccccc3)C=C[C@@H]2Oc2ccc(OC)cc2)[C@@H](CO)O1"
test_readout = "z-score"
recorded_measurement = 1.25

[[record]]
structure_smiles_string = "CC(C)CON=C1C[C@@H](O)[C@@H](O)[C@@H]2[C@@H]3C(=O)N(c4cccc(Oc5ccccc5)c4)C(=O)[C@@H]3CC[C@@H]12"
test_readout = "z-score"
recorded_measurement = -0.696


====

Experiment: adipocyte viability effects, profiling panel, cell-based, 3T3-L1 adipocytes, calcein-AM fluorescence, 48 h, basal (AID 1163); also: test concentration not given here
Conditions: 3T3-L1 adipocytes viability, higher = more signal
Field: label. Allowed values: Satisfied (z-score < -0.2) or Not satisfied (z-score >= -0.2).

[[record]]
compound = "CCOC(=O)CCN1C(=O)[C@H]2[C@H]3[C@H](O)[C@H](O)CC(=NOCc4ccccc4)[C@H]3CC[C@H]2C1=O"
class = "Satisfied"

[[record]]
compound = "CO[C@@H]1COC(=O)CC=C[C@@H](C)[C@H](OC)COC(=O)[C@@H](C)COC(=O)CC=C[C@H]1C"
class = "Not satisfied"

[[record]]
compound = "CCCCc1nc2c(c3c1C[C@H](C)OC3)CN(CCOc1ccccc1)CC2"
class = "Not satisfied"

[[record]]
compound = "COC(=O)CC=C[C@@H](C)[C@@H](C=NO[C@H](C)c1cn([C@@H]2COC[C@H]2O)nn1)NS(=O)(=O)c1ccc(C)cc1"
class = "Satisfied"

[[record]]
compound = "CC(CCN1CCCc2nc(C)c(C)cc21)=NO[C@@H](C)c1cc(-c2c(C)cc(C)cc2C)no1"
class = "Not satisfied"

[[record]]
compound = "CCOC(=O)[C@H](Cc1ccccc1)NC(=O)CCC1CC(OC(=O)NCc2ccc3c(c2)OCO3)CC2(CCCC(COC(=O)NCCc3ccccc3OC)O2)O1 (some centres not stated)"
class = "Satisfied"

[[record]]
compound = "CCOC(=O)[C@H](CC(C)C)NC(=O)CCC1CC(OC(=O)NCCc2ccc(F)cc2)CC2(CCCC(COC(=O)NCCc3ccc(Cl)cc3)O2)O1 (some centres not stated)"
class = "Not satisfied"


====

Experiment: binders of probe aHhip on microarray, primary screen, stem cell growth factor project, biochemical, small-molecule microarray, fluorescence 635/667 (AID 1087);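 also: score merges spot fluorescence at 667nm with spot signal to noise ratio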
Conditions: higher = more signal
Entries and their measured composite z-score follow.
TEST_READOUT: composite z-score

[[record]]
compound = "CO[C@H]1COC(=O)CCC[C@@H](C)[C@H](OC)COC(=O)[C@@H]2CCCN2C(=O)CC=C[C@@H]1C"
recorded_measurement = 0.113

[[record]]
compound = "O=C(NN=C1C[C@@H](O)[C@@H](O)[C@@H]2[C@@H]3C(=O)N(C[C@@H]4CCCO4)C(=O)[C@@H]3CC[C@H]12)OCc1ccccc1"
recorded_measurement = -0.0994

[[record]]
compound = "CCOC(=O)[C@H](CC(C)C)NC(=O)CCC1CC(OC(=O)NCc2cccc3ccccc23)CC2(CCCC(COC(=O)NCc3ccncc3)O2)O1 (some centres undefined)"
recorded_measurement = -0.236

[[record]]
compound = "Cc1cc2c(c(=O)o1)[C@@H](O)[C@H]1O[C@H]1C2=O"
recorded_measurement = 0.151


====

Test: mitochondrial membrane potential change in A549 cells, profiling panel, cell-based, JC-1 fluorescence, basal, 24 h, 100 nL (AID 1138);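 also: A549 lung adenocarcinoma cells under basal conditions with no added stimulus; test concentration not given here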
Conditions: higher = more signal
Entries and their measured z-score follow.
TEST_READOUT: z-score

[[record]]
compound = "COc1ccc(COC(=O)NN=C2C[C@@H](O)[C@@H](O)[C@@H]3[C@@H]4C(=O)N(c5cccc(Oc6ccccc6)c5)C(=O)[C@@H]4CC[C@@H]23)cc1"
recorded_measurement = -0.201

[[record]]
compound = "CO[C@H]1COC(=O)[C@@H]2CCCN2C(=O)CC=C[C@@H](C)[C@H](OC)COC(=O)[C@@H](OCc2ccccc2)C=C[C@@H]1C"
recorded_measurement = 0.0486

[[record]]
compound = "COC(=O)[C@H](C)NC(=O)CCC1CC(OC(=O)NCCc2ccc(F)cc2)CC2(CCCC(COC(=O)NCc3cccc(C(F)(F)F)c3)O2)O1 (some centres not stated)"
recorded_measurement = -0.0843

[[record]]
compound = "CCOC(=O)[C@H](Cc1ccccc1)NC(=O)CCC1CC(OC(=O)NCCc2ccc(F)cc2)CC2(CCCC(COC(=O)NCCOC)O2)O1 (some centres not stated)"
recorded_measurement = 0.671

[[record]]
compound = "C#CCCCON=C1C[C@@H](O)[C@@H](O)[C@@H]2[C@@H]3C(=O)N(c4ccc(F)cc4F)C(=O)[C@@H]3CC[C@H]12"
recorded_measurement = 0.0852

[[record]]
compound = "COC(=O)CC=C[C@@H](C)[C@@H](C=NOC(C)CN1CCCc2nc(C)c(C)cc21)OC (some centres not stated)"
recorded_measurement = -0.27

[[record]]
compound = "O=C1[C@H]2[C@H]3[C@H](O)[C@H](O)CC(=NOCc4ccccc4)[C@@H]3CC[C@H]2C(=O)N1c1ccc(F)cc1F"
recorded_measurement = -0.332

